System: HBV viral production in AD38 cells
Test: Viral load production in AD38 cells by quantitative PCR of the HBV core sequence in supernatant
Type: cell-based
Conditions: Hepatitis B virus, 144 h; 10 μM compound, 6 days at 37° C., viral load in supernatant compared against DMSO control wells; read-out: AD38 Viral Load (CpAM/DMSO %) at 10 μM
endpoint.name: activity at 10 µM
Phrase the answer as number then unit, nothing more needed.

Worked examples, 5 molecules total:
molecule: O=C(NCCc1cncnc1)c1ccc2c(c1)NC(=O)c1cccc(F)c1S2 [Compound 1409]
reading: 4%
//
molecule: O=C(NCCc1cncs1)c1ccc2c(c1)NC(=O)c1ccccc1N2Cc1ccccc1 [Compound 1511]
reading: 38%
//
molecule: O=C(NCc1ccccc1O)c1ccc2c(c1)NC(=O)c1ccccc1S2 [Compound 1219]
reading: 5%
//
molecule: CCN1c2ccc(C(=O)NCc3cccnc3)cc2NC(=O)c2ccccc21 [Compound 1550]
reading: 1%
//
molecule: O=C(Nc1ccncc1)c1cc2c(cc1F)Sc1ccccc1C(=O)N2 [Compound 1508]
reading: 31%

Task: I'm curious: which activity at 10 µM was measured for O=C(NCCc1cccnc1)c1ccc2c(c1)NC(=O)c1ccccc1[S+]2[O-] (stereo not drawn) [Compound 1389] tested on HBV viral production in AD38 cells?
Result: 15%

Task: Next record, please: O=C1Nc2c(cc(F)c(C(=O)NCc3cnco3)c2F)Sc2ccccc21 [Compound 1530]
Result: 70%

Task: Next record, please: O=C(NCCO)c1ccc2c(c1)NC(=O)c1ccccc1S2 [Compound 1172]
Result: 51%

Task: Next record, please: O=C(Nc1ccc(-c2ccccc2)cc1)c1ccc2c(c1)NC(=O)c1cc(F)ccc1S2 [Compound 1326]
Result: 23%

====

System: AD38 cells
Experiment: Viability of AD38 cells (Promega CellTiter-Glo) at the end of compound treatment
Assay type: cell-based
Conditions: 10 μM compound, 6 days, luminescence normalized against DMSO control wells (controls being 100%)
endpoint.name: AD38 Viability Normalized Result (CPAM/DMSO %) at 10 μM
Number only, in %; omit the unit.

Worked examples, 3 compounds total:
smiles.structure: O=C(Nc1ccccc1F)c1ccc2c(c1)NC(=O)c1cc(F)ccc1S2
reading: 94
--
smiles.structure: O=C(NCc1cnco1)c1ccc2c(c1)NC(=O)c1ccccc1N2Cc1ccccc1
reading: 79
--
smiles.structure: CC(=O)Nc1ccccc1NC(=O)c1ccc2c(c1)NC(=O)c1ccccc1S2
reading: 78

Task: # get_value(readout='AD38 Viability Normalized Result (CPAM/DMSO %) at 10 μM', item= `O=C(NCc1cncs1)c1ccc2c(c1)NC(=O)c1cc(F)ccc1S2` )
Result: 107

====

Entries and their AD38 Viability Normalized Result (CPAM/DMSO %) at 10 μM values follow.
Test system: AD38 cells
Assay: Viability of AD38 cells (Promega CellTiter-Glo) at the end of compound treatment
Assay type: cell-based
Conditions: 10 μM compound, 6 days, luminescence normalized against DMSO control wells (controls being 100%)
Number only, in %; omit the unit.

Worked examples, 4 compounds total:
smiles.structure: O=C(NCCc1ccc(-n2ccnc2)cc1)c1ccc2c(c1)NC(=O)c1ccccc1S2
unit.descriptor: %
reading: 106
--
smiles.structure: CC(=O)N1CCC(CNC(=O)c2ccc3c(c2)NC(=O)c2ccccc2S3)CC1
unit.descriptor: %
reading: 106
--
smiles.structure: O=C(Nc1ccncc1)c1ccc2c(c1)NC(=O)c1ccccc1N2Cc1ccccc1
unit.descriptor: %
reading: 60
--
smiles.structure: Cc1ccc(CCNC(=O)c2ccc3c(c2)NC(=O)c2ccccc2S3)cc1
unit.descriptor: %
reading: 0

Task: I'm curious: which AD38 Viability Normalized Result (CPAM/DMSO %) at 10 μM was measured for `O=C(Nc1ccncc1)c1cc2c(cc1F)Sc1ccccc1C(=O)N2` tested on AD38 cells?
Result: 81

Task: Next record, please: `O=C(Nc1nccs1)c1ccc2c(c1)NC(=O)c1ccccc1S2(=O)=O`
Result: 125

Task: Next record, please: `O=C(Nc1cccc(-c2ccccc2)c1)c1ccc2c(c1)NC(=O)c1c(F)cccc1S2`
Result: 95

Task: Next record, please: `Cc1ncsc1CNC(=O)c1ccc2c(c1)NC(=O)c1ccccc1S2`
Result: 108

====

System: HBV viral production in AD38 cells
Assay: Viral load production in AD38 cells by quantitative PCR of the HBV core sequence in supernatant
Format: cell-based
Details: Hepatitis B virus, 144 h; 10 μM compound, 6 days at 37° C., viral load in supernatant compared against DMSO control wells; read-out: AD38 Viral Load (CpAM/DMSO %) at 10 μM
endpoint.name: activity at 10 µM (%)
Number only, in %; omit the unit.

Worked examples, 8 compounds total:
compound: O=C1Nc2cc(S(=O)(=O)N3CC(O)C3)ccc2Sc2ccccc21
endpoint.name: activity at 10 µM
reading: 85

compound: Cc1ccc(CCNC(=O)c2ccc3c(c2)NC(=O)c2ccccc2S3)cc1
endpoint.name: activity at 10 µM
reading: 1

compound: O=C1Nc2cc(S(=O)(=O)NCCc3cncnc3)ccc2Sc2ccccc21
endpoint.name: activity at 10 µM
reading: 64

compound: O=C(NCCc1ccc(-c2ccccc2)cc1)c1ccc2c(c1)NC(=O)c1ccc(F)cc1S2
endpoint.name: activity at 10 µM
reading: 6

compound: O=C(NCCc1ccccn1)c1cc2c(cc1F)Sc1ccccc1C(=O)N2
endpoint.name: activity at 10 µM
reading: 55

compound: O=C(NCc1cnc(-c2ccccc2)nc1)c1ccc2c(c1)NC(=O)c1cc(F)ccc1S2
endpoint.name: activity at 10 µM
reading: 4

compound: O=C(NCc1cccc(F)c1)c1ccc2c(c1)NC(=O)c1ccccc1S2(=O)=O
endpoint.name: activity at 10 µM
reading: 0

compound: COc1ccccc1CCNC(=O)c1ccc2c(c1)NC(=O)c1ccccc1S2
endpoint.name: activity at 10 µM
reading: 22

Task: # get_value(readout='activity at 10 µM', item= `O=C(NCc1ccc(O)cc1)c1ccc2c(c1)NC(=O)c1ccccc1S2` )
Result: 2

Task: Next record, please: `O=C(NCCc1ccc2ccccc2c1)c1ccc2c(c1)NC(=O)c1ccccc1S2`
Result: 2

Task: Next record, please: `Cc1ccccc1CNC(=O)c1ccc2c(c1)NC(=O)c1ccccc1S2`
Result: 1

Task: Next record, please: `O=C(Nc1cccc(-c2ccccc2)c1)c1ccc2c(c1)NC(=O)c1ccccc1S2(=O)=O`
Result: 12

Task: Next record, please: `CCCCCCNC(=O)c1ccc2c(c1)NC(=O)c1ccccc1S2`
Result: 1

Task: Next record, please: `Cc1nnc(NC(=O)c2ccc3c(c2)NC(=O)c2cc(F)ccc2S3)o1`
Result: 40

Task: Next record, please: `O=C(NCCc1ccc(-c2ccccc2)cc1)c1ccc2c(c1)NC(=O)c1ccccc1S2`
Result: 2

Task: Next record, please: `O=C1Nc2c(cc(F)c(C(=O)NCc3cncs3)c2F)Sc2ccccc21`
Result: 59

Task: Next record, please: `O=C(NCc1cncs1)c1ccc2c(c1)NC(=O)c1ccccc1S2`
Result: 1

Task: Next record, please: `O=C(NCCc1ccc(-n2nccn2)cc1)c1ccc2c(c1)NC(=O)c1ccccc1S2(=O)=O`
Result: 0

Task: Next record, please: `O=C(NCCc1cncs1)c1cc2c(cc1F)Sc1ccccc1C(=O)N2`
Result: 51

Task: Next record, please: `O=C(Nc1cccc(-c2ccncn2)c1)c1ccc2c(c1)NC(=O)c1cc(F)ccc1S2`
Result: 30

Task: Next record, please: `NS(=O)(=O)c1ccc(CCNC(=O)c2ccc3c(c2)NC(=O)c2ccccc2S3)cc1`
Result: 15

Task: Next record, please: COCC(Cc1cncnc1)NC(=O)c1ccc2c(c1)NC(=O)c1cc(F)ccc1S2 (stereo not shown)
Result: 73

====

Tested on: AD38 cells
Assay: Viability of AD38 cells (Promega CellTiter-Glo) at the end of compound treatment
Format: cell-based
Settings: 10 μM compound, 6 days, luminescence normalized against DMSO control wells (controls being 100%)
Entries and their AD38 Viability Normalized Result (CPAM/DMSO %) at 10 μM values follow.
Number only, in %; omit the unit.

smiles.structure: CC(C)c1ncsc1CNC(=O)c1ccc2c(c1)NC(=O)c1ccccc1S2
reading: 45

Task: # get_value(readout='AD38 Viability Normalized Result (CPAM/DMSO %) at 10 μM', item= `O=C(NCc1cnco1)c1ccc2c(c1)NC(=O)c1cccc(F)c1S2` )
Result: 94

Task: Next record, please: `Cc1ccccc1CNC(=O)c1ccc2c(c1)NC(=O)c1ccccc1S2`
Result: 73

Task: Next record, please: `CCc1cccc(CNC(=O)c2ccc3c(c2)NC(=O)c2ccccc2S3)c1`
Result: 97

Task: Next record, please: `CC(=O)Nc1ccccc1CNC(=O)c1ccc2c(c1)NC(=O)c1ccccc1S2`
Result: 103

Task: Next record, please: `O=C(NC[C@@H](CO)c1ccccc1)c1ccc2c(c1)NC(=O)c1ccccc1S2`
Result: 84

Task: Next record, please: `O=C(Nc1ccc(-c2ccccc2)cc1)c1ccc2c(c1)NC(=O)c1cc(F)ccc1S2`
Result: 95

Task: Next record, please: `CCN1c2ccc(C(=O)NCCc3cncnc3)cc2NC(=O)c2ccccc21`
Result: 103
